Tested on: SN12C renal
Experiment: NCI tumour cell line growth inhibition, 48 h
Task for the reader: assign each of the following compounds its reported TGI.

COMPOUND: CCc1nc2ccc(N=NN(C)C)cc2[nH]1
RESULT VALUE: > 100 µM
//
COMPOUND: CC[C@@]12N=C(N(C)C)C[C@]1(O)ON=C2C
RESULT VALUE: > 100 µM
//
COMPOUND: Cc1cccc(C(C)C)c1NC(=O)CC1Sc2ccccc2NC1=O (configuration not stated)
RESULT VALUE: > 100 µM
//
COMPOUND: COc1cccc(/C=N/[N-]C(=O)c2ccncc2)c1[O-].[Cu+2].[OH3+]
RESULT VALUE: > 100 µM
//
COMPOUND: COc1ccc(N2C(=O)CS(=O)(=O)C2c2cccc(Oc3ccccc3)c2)cc1 (configuration not stated)
RESULT VALUE: 21.4 µM
//
COMPOUND: CC(C)(C)C(=O)OC(N)/C=C/c1ccccc1 (configuration not stated)
RESULT VALUE: > 100 µM
//
COMPOUND: O=P(O)(Cc1ccccc1)c1ccccc1-c1ccccc1
RESULT VALUE: > 100 µM
//
COMPOUND: CCOc1ccc2nc(S/C(=C/C=C(C#N)C#N)c3ccc(C)cc3)sc2c1
RESULT VALUE: 46.4 µM

Value sought for every listed compound: TGI.
1. CC(=O)OC1(C#N)CC2OC1C1C2N=NN1C(=O)OC(C)(C)C (configuration not stated)
2. CCOP(=O)(O)C(C)(C)NC
3. Cc1ccc(Cn2c(C)nc3c2C(=O)c2ccccc2C3=O)cc1
4. CC#C[P+](c1ccccc1)(c1ccccc1)c1ccccc1
5. COc1ccncc1C#Cc1cncc(C(=O)Nc2ccc(CN3CCN(C)CC3)c(C(F)(F)F)c2)c1

1. > 100 µM
2. > 100 µM
3. > 100 µM
4. 4.13 µM
5. > 100 µM

Give TGI for all compounds that follow.
1. Cc1ccc(NC(=O)C2C(=O)N(c3ccc(C)c(C)c3)C(=O)C2N=N)cc1C (configuration not stated)
2. COc1cc(C2SCC(=O)N2c2ccc(Cl)c(Cl)c2)cc(OC)c1OC (configuration not stated)
3. CCCCn1c(C)c2c(c1C)C(=O)N(CC(O)CN1CCc3ccccc3C1)C2=O (configuration not stated)
4. CCc1c(OC(C)=O)c2c(NC3OC(COC(C)=O)C(OC(C)=O)C(OC(C)=O)C3OC(C)=O)nc(OC)nc2oc1=O (configuration not stated)
5. O=C(O)CSc1n[nH]c(-c2ccccc2)n1
6. CCOC(=O)c1ccc(NC(=O)O/N=C(/Cl)CCl)cc1

> 100 µM
> 100 µM
> 100 µM
> 100 µM
> 100 µM
> 100 µM

// batch mode: one TGI value per listed entry
1. COc1cccc2c1C(=O)c1c(O)c3c(c(O)c1C2=O)C[C@@](O)(C(=O)CO)C[C@@H]3OC1CC(N)C(OC)C(C)O1 (some centres not stated)
2. O=[N+]([O-])c1cc2c(c3nonc13)OCCCCO2
3. N#C/C=C(\c1ccc([N+](=O)[O-])cc1)n1nnc2cc(Cl)c(Cl)cc21

["0.644 µM", "16.1 µM", "5.4 µM"]

* * *

System: BT-549 breast
Test: NCI tumour cell line growth inhibition, 48 h
MEASURED PARAMETER: TGI

Solved cases (5 shown):
COMPOUND: O=[N+]([O-])c1ccc(S(=O)(=O)N=Ic2ccccc2)cc1
TGI: > 100 µM
//
COMPOUND: COc1ccc(N2C(=O)CS(=O)(=O)C2c2cccc(Oc3ccccc3)c2)cc1 (stereo unspecified)
TGI: 54.1 µM
//
COMPOUND: COc1c(OC)c(OC)c(C(=O)/C=C/c2ccccc2)c(OC)c1OC
TGI: 18.1 µM
//
COMPOUND: CC12CC(C#N)(C#N)C(C#N)(CO1)C(=N)O2 (stereo unspecified)
TGI: > 100 µM
//
COMPOUND: O=C(c1cc(Cl)cc(Cl)c1)N1CCN(C(=O)c2cc(Cl)cc(Cl)c2)C1=S
TGI: 70.8 µM

Okay, here is my list. What is TGI for each of these?
1. Cc1cn2c(/C=C3\C(=O)Nc4ccc(O)cc43)c(-c3ccc(Cl)cc3)nc2s1
2. CSc1ncnc2c1cnn2CCCCO
3. COc1ccc(C(O)c2nccn2C)c(OC)c1 (stereo unspecified)
4. O=C(NS(=O)(=O)OCC(Cl)(Cl)Cl)SCCC(F)(F)C(F)(F)C(F)(F)C(F)(F)C(F)(F)C(F)(F)F

1. 41.5 µM
2. > 100 µM
3. > 100 µM
4. > 100 µM

Go through the items and report each one's TGI.
1. CC(CC(=O)O)C(C(=O)O)C(=O)O (stereo unspecified)
2. CN(CCN(C)C(=S)NN)C(=S)NN

1. > 100 µM
2. > 100 µM

* * *

What TGI was measured for each of the following?
System: SR leukemia
Experiment: NCI tumour cell line growth inhibition, 48 h

Reference set, count: 6
COMPOUND: COc1cccc2c1C(=O)c1c(O)c3c(c(O)c1C2=O)C[C@@](O)(C(=O)CO)C[C@@H]3OC1CC(N)C(OC)C(C)O1 (some centres undefined)
TGI: 0.364 µM

COMPOUND: O=C(CSc1nnc(-c2ccc(N=Cc3ccc(Cl)cc3)cc2)o1)Nc1ccc(Cl)cc1
TGI: > 100 µM

COMPOUND: Nc1nccc2c1ccn2-c1ccc(NC(=O)c2ccc(N3CCOCC3)c(C(F)(F)F)c2)cc1
TGI: > 100 µM

COMPOUND: COC1C(O)=C2C(=O)O/C(C)=C/C=C/C=C/C=C\CC(c3ccccc3)NC(=O)\C=C/C=C\C=C\C=C\[C@@]2(C)[C@@H]1O (some centres undefined)
TGI: 0.165 µM

COMPOUND: C=CC(=O)N1CCC(C2CCNc3c(C(N)=O)c(-c4ccc(Oc5ccccc5)cc4)nn32)CC1 (centres undefined)
TGI: 46.8 µM

COMPOUND: COc1ccc(-c2cc(-c3ccccc3)c(C#N)c(=O)n2C2OC(CO)C(O)C(O)C2O)cc1 (centres undefined)
TGI: > 100 µM

Kindly give each listed record's TGI.
1. O=C1NC(=S)NNC12c1ccccc1-c1ccccc12
2. Oc1ccc(-c2nc(-c3ccc(F)cc3)c(-c3ccc4ccccc4n3)[nH]2)cc1
3. COc1ccc(OC)c(N2C(=O)CSC2c2cc(OC)c(OC)c(OC)c2)c1 (centres undefined)

1: > 10 µM; 2: > 100 µM; 3: > 100 µM

* * *

System: NCI-H522 lung
Test: NCI tumour cell line growth inhibition, 48 h
Exercise: for every item that follows, state its recorded TGI.

COMPOUND: Cc1nc2ccccc2nc1-c1ccc(N=[N+]([O-])c2ccc(-c3nc4ccccc4nc3C)cc2)cc1
RESULT VALUE: > 100 µM

Batch request: TGI for each of the following compounds.
1. CCc1cccc(C)c1NC(=O)C(=O)Cc1nc2ccccc2o1
2. COC(=O)C1C=CN(N(C)C)C2=C1C(=O)c1c(O)cccc1C2=O (stereo unspecified)
3. C[C@H]1C2Cc3cc(N)ccc3[C@@]1(C)CCN2CCc1ccccc1
4. CCCC(O)C(NC(=O)CCl)C(=O)O (stereo unspecified)
5. N#C/C=C(\c1ccc([N+](=O)[O-])cc1)n1nnc2cc(Cl)c(Cl)cc21
6. Cc1cc(C)nc(NS(=O)(=O)c2ccc(NNC(=O)c3cccc4c(=O)c5ccccc5[nH]c34)cc2)n1
7. Cc1ccc(-c2nc3ccc([N+](=O)[O-])cc3[nH]2)cc1

["> 100 µM", "5.95 µM", "31.5 µM", "> 100 µM", "3.57 µM", "> 100 µM", "> 100 µM"]

Batch request: TGI for each of the following compounds.
1. COc1ccncc1C#Cc1cncc(C(=O)Nc2ccc(CN3CCN(C)CC3)c(C(F)(F)F)c2)c1
2. CC(CC(=O)O)C(C(=O)O)C(=O)O (stereo unspecified)

1. 46 µM
2. > 100 µM

Tell me the measured TGI of COc1ccc(CN(Cc2ccc(OC)cc2)C(=O)CC2(O)C=CCC2)cc1 (stereo unspecified) , please.
> 100 µM

* * *

System: HS 578T breast
Experiment: NCI tumour cell line growth inhibition, 48 h; in the data active = GI50 below about 0.43 µM; inactive = the rest
Answer with one of the outcomes active, inactive

Worked examples, 5 compounds total:
COMPOUND: CCOC(=O)C(=Cc1cccc(Cl)c1)C(=O)OCC
ASSIGNED LABEL: inactive

COMPOUND: CC1(C)OCCn2c1nc1c(N3CCOCC3)nc(-c3cnc(N)nc3)nc12
ASSIGNED LABEL: active

COMPOUND: N=c1ccn2c(n1)OC1C(O)C(CO)OC12 (stereo unspecified)
ASSIGNED LABEL: inactive

COMPOUND: COc1ccc(-c2oc(=O)ccc2-c2cc(OC)c(OC)c(OC)c2)cc1F
ASSIGNED LABEL: inactive

COMPOUND: C=CCc1cccc(/C=N/NC(=O)CN2CCN(Cc3ccccc3)CC2)c1O
ASSIGNED LABEL: inactive

Continue with the compound presented below.
Which outcome was entered for the compound `C[C@H]1[C@H](C)CC[C@]2(C(=O)OCCOCCOCC[P+](c3ccccc3)(c3ccccc3)c3ccccc3)CC[C@]3(C)C(=CC[C@@H]4[C@@]5(C)CC[C@H](OC(=O)C(Cl)Cl)C(C)(C)[C@@H]5CC[C@]43C)[C@H]12` in this test?
active
